test: chemical genetic growth profiling, strain panel (AID 1159580);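 further: tested at 20 µM; growth read once vehicle control cultures reached saturation at 30 °C; lower values mean less growth of the strain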; settings: S. cerevisiae deletion strains, growth OD, locus YJR075W, strain HOC1, active compounds read low
The whole screen tested about 5,500 compounds, of which about 2,000 (36%) were called active. Roughly 18% stayed inconclusive and do not appear here. The list shows a part of the results.
Rule: measured normalized growth below 1 gets Yes; anything equal to or greater than 1 gets No.

{"columns": ["compound", "category_label"],
 "data": [
  ["Fc1cc2n[nH]nc2cc1Cl", "Yes"],
  ["CCC(C(=O)Nc1ccc(C(F)(F)F)cc1)c1ccccc1 (stereo unspecified)", "Yes"],
  ["O=C(NC(=S)NCc1ccncc1)c1ccccc1", "No"]
]}
